- System: mouse (Mus musculus)
- Assay Summary: Observed clearance in mouse at 2 mg/kg, iv dosed as single administration
- Test Conditions: in vivo
Give clearance for every item shown.

Molecule	clearance
N#Cc1ccc(Cn2nc(-c3cc(Cl)c(NCC(O)CO)nc3F)c3ccccc3c2=O)cc1 (configuration not stated)	4.1 mL/min/kg

Below: the item to evaluate.
(Q) Any idea what clearance came out for COCCNc1nc(F)c(-c2nn(Cc3ccc(C#N)cc3)c(=O)c3ccccc23)cc1Cl on mouse (Mus musculus)?
(A) 11.1 mL/min/kg

---

- Assay Summary: Toxicity in human HepG2.2.15 cells
- Assay type: cell-based, HepG2 2.2.15
Measured Property: CC50 (µM)
Give bare numbers, in µM.

(Q) Suppose we examine the compound Cc1cc(-c2ccc(F)nc2F)nn(Cc2ccc(Cl)cc2)c1=O ; what CC50 value has been reported?
(A) 90.6

---

- Assay Summary: Drug metabolism in dog liver microsomes at 3 uM in presence of NADPH incubated for 60 mins by UPLC-UV/QTOF MS analysis relative to control
- Type: ADME, Canis lupus familiaris, Microsome
- Test Conditions: read-out: Drug metabolism
Measured Property: metabolised at 1 h, 3 µM (%)
Give bare numbers, in %.

(Q) Fill in: metabolised at 1 h, 3 µM of Cc1cc(-c2ccc(F)nc2F)nn(Cc2ccc(Cl)cc2)c1=O is ___
(A) 79

---

- Assay Summary: AUC (0 to t) in Sprague-Dawley rat at 20 mg/kg, po dosed as single administration
- Type: ADME, organism-based
- Test Conditions: in vivo
Measured Property: AUC(0-t) (ng·h/mL)
One number for each entry, in ng·h/mL.

(Q) Entry Cc1cc(-c2ccc(F)nc2F)nn(Cc2ccc(Cl)cc2)c1=O has what AUC(0-t)?
(A) 1100

---

- Assay Summary: Drug metabolism in mouse liver microsomes at 3 uM in presence of NADPH incubated for 60 mins by UPLC-UV/QTOF MS analysis relative to control
- Type: ADME, Microsome
Measured Property: metabolised at 1 h, 3 µM

(Q) If you can, please state the reported metabolised at 1 h, 3 µM value of Cc1cc(-c2ccc(F)nc2F)nn(Cc2ccc(Cl)cc2)c1=O .
(A) > 95%

---

For each of the compounds below, state its CC50 at 192 h.
- Assay Summary: Cytotoxicity in human HepG2.2.15 cells assessed as reduction in cell viability incubated for 8 days by MTT assay
- Format: cell-based, HepG2 2.2.15

Record excerpt, results attached:
COC(=O)c1cc(-c2ccc(F)nc2F)nn(Cc2ccc(Cl)cc2)c1=O > 100 µM
N#Cc1ccc(Cn2nc(-c3cc(Cl)c(NCCO)nc3F)c3ccccc3c2=O)cc1 32.1 µM
CC(=O)Nc1ccc(-c2nn(Cc3ccc(C#N)cc3)c(=O)c3ccccc23)c(F)n1 > 100 µM
Cn1cc(-c2ccc(F)nc2F)nc(Cc2ccc(Cl)cc2)c1=O > 100 µM

Kindly consider the entry below.
(Q) Data request, read-out CC50 at 192 h, for N#Cc1ccc(Cn2nc(-c3ccc(F)nc3F)c3ccccc3c2=O)cc1
(A) > 100 µM

---

- Assay Summary: Cytotoxicity in human HepG2.2.15 cells assessed as reduction in cell viability incubated for 8 days by MTT assay
- Format: cell-based, HepG2 2.2.15
Would you mind telling me the reported CC50 at 192 h of each entry?

Here's what some known entries look like.
Cc1nc(-c2ccc(F)nc2F)cn(Cc2ccc(Cl)cc2)c1=O > 100 µM
CCOc1ccc(-c2nn(Cc3ccc(C#N)cc3)c(=O)c3ccccc23)c(F)n1 > 100 µM

Continue with the compound presented below.
(Q) Recorded CC50 at 192 h for COC(=O)CCNc1nc(F)c(-c2nn(Cc3ccc(C#N)cc3)c(=O)c3ccccc23)cc1Cl , please?
(A) > 100 µM
